- study target: human glucagon receptor (human) (UniProt P47871)
- Sequence (P47871 26-477): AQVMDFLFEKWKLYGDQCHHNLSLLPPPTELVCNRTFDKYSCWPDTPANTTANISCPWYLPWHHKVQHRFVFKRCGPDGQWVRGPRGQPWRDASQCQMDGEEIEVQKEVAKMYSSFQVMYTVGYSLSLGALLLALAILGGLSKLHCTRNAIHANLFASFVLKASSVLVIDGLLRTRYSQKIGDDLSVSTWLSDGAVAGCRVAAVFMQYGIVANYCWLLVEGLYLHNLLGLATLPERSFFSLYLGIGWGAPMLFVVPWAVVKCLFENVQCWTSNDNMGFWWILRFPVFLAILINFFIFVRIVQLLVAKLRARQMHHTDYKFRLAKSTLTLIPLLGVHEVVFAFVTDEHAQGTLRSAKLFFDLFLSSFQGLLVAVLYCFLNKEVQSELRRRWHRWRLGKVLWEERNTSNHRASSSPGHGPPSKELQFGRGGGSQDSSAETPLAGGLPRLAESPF
- assay procedure: cell-based or functional assay
reported property: Relative cAMP EC50 (nM)
// note: answer is a bare numeric in nM

binder	units of measure	Relative cAMP EC50
YXQGTXTSDXSILLDKKAQXAFIEXLEEGGPSSGAPPPSGTGE (synthetic construct; SITE 2: note = 2-Aminoisobutyric Acid; SITE 6: note = alpha-methyl-2-fluoro-L-phenylalanine; SITE 10: note = 3-(4-Pyridyl)-L-alanine; SITE 17: note = Lysine is chemically modified through conjugation of the epsilon-amino group of the Lysine side chain with (2-[2-(2-Amino-ethoxy))) [Example 669 (SEQ ID NO: 675)]	nM	1.76
YXQGTXTSDYSILLDKKAQXAFIEYLEEGGPSSGAPPPSEG (not fully specified; synthetic construct; SITE 2: note = 2-Aminoisobutyric Acid; SITE 6: note = alpha-methyl-2-fluoro-L-phenylalanine; SITE 17: note = Lysine is chemically modified through conjugation of the epsilon-amino group of the Lysine side chain with (2-[2-(2-Amino-ethoxy)-ethoxy]-acetyl)-(gamma-Glu)-CO-(CH2) 16-) [Example 398]	nM	2.16

Looking up YXQGTFTSDXSQXLDKKAQXAFIEYLIAGGESSGAPPPSGSEE (synthetic construct; SITE 2: note = 2-Aminoisobutyric Acid; SITE 10: note = 3-(4-Pyridyl)-L-alanine; SITE 13: note = alpha-methyl-leucine; SITE 17: note = Lysine is chemically modified through conjugation of the epsilon-amino group of the Lysine side chain with (gamma-Glu)2-CO-(CH2)16-CO2H; SITE 20:) [Example 963] , I see its Relative cAMP EC50 listed as 5.81
